# System: K4 kissing-loop RNA reporter
# assay summary: apparent KD of K4 kissing-loop reporter; higher = weaker reporter binding
# run parameters: Eterna round: R107; input ligand: arginine 13.2 mM
Threshold check on apparent KD of K4 kissing-loop reporter: at or above 200 nM gives Condition met, strictly below gives Condition not met.

sequence data	answer label
CGCAAGCAGCCAGUGAUGUUGGCCGCCUUGCGAGGACCGGUACGGCCGCCACUCGAAGGCGGCUACUGGUAAUCCGUCUAACGGA [Lareus]	Condition not met
GCUACCUAUGCAGGAUAUGGUAUUACGAGUGAUGUUCGAGGCGAAUAGAGUGAUGUUCUAUUUCCACCAGAAGGGCAUAGGUAGC	Condition not met
AUACGUUUAAGUGAUACCAGACAUGUGAGUGAUGUUUACAAAUAAAUUAAAUUUUUAGCUGUCCCUUGGCAGCACAGUUUAUUUA [JR_ExcTheophyB_Sub002]	Condition met
GCCGUAGAUGGAAGGAGCGUGAAUGGCCUCUAUCCAAAGUGAUGUUUUGUUGAAGACUGUUCACAGGUAGGUCGCCAUCUACGGC	Condition not met
CGUCUAUAGCAGGAUACCAGUACCCAUUAUGUACGUUUAUAGUAGAGUGAUGUUCUAAAGUACCCUUGGCAGCUUCCUGUGACCC [#24 K4 Theophylline B Exclusion]	Condition not met
AGACCACAAAGUGGUCAGUGUUCGCUGCAGCGAGGACCGGUACGGCCGCCACUCGCGAGUGAUGUUCGCGAGCGCAGCGAACACA [Omei KL Tryp A Exc A v5]	Condition not met
AGCUAGUACGCAGGAUAUCGAACAUCAUUUAGUGAGAUCGAGUGAUGUUCGAUCACGUCUUCAGUUCGAGAAGGGCGUACUAGCA [#01 K4 FMN B Same State]	Condition met
AACCGUGUGGCGGCCGCCACUAGUCUCCAGUGAUGUUGGAGAGACCACGUAAGUGGUCUCCGACAUAGGACCGGGCCAUAUGGAA [Same State - Tryptophan B (Freestyle 25)]	Condition met
UUUAAAUAUAGUGAUGUUAUAUAACAAUGACGAGGACCGGUACGGCCGCCACUCGAGAGAGAUAAUGGUCAUGCAAAUGUAUGUC [#15 K4 Tryptophan A Same State]	Condition met
CCUAUCUCAUACGAUACCAGUCCGAGUGAUGUUCGAACAGGUUUUAGUUUGCCAUAUAAUGACCCUUGGCAGCGUAUGGGAUAGG [Ex Theophylline B K4 13]	Condition not met
CUUGGGCUUGCGGCCGCCACUCAAACAUCAUUAAGGAUGGUCCACGGGCAAGUGAUGUUUAUCCGGAGGACCGGGCAUAGCGACA [theeternabot_exclusion_KL_Trp_B_23]	Condition met

----------
# Test system: K4 kissing-loop RNA reporter;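 note: bound reporter read as fluorescence of individual clusters on recovered sequencing chips by microscopy, with normalized cluster intensities fitted with a binding model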
# assay summary: apparent KD of K4 kissing-loop reporter; higher = weaker reporter binding
# run parameters: Eterna round: R107; input ligand: FMN 200 uM
The entries below come with measured apparent KD of K4 kissing-loop reporter values attached.
measured endpoint: apparent KD of K4 kissing-loop reporter (nM)

sequence data	assayed target	measured endpoint	numeric readout
UGAUAGCCAGUGAUGUUGGCAUAUACUGAAGGAGCGCGUGAAAACGCAGGUAGGUCGCAGUUCCUUGCCAAUUGAUCGAAAGAUC [#08 K4 Arginine A Exclusion]	K4 kissing-loop RNA reporter	apparent KD of K4 kissing-loop reporter	162
UGAUACCAGACUGAUACCAGCUAGUGAUGUUAGCUGAUCUAAGGACCGUCAAAGACGGCUAGCCCUUGGCAGCAGUCUGGUAUCU [TheoBX 13 #SwitchBubble #StaticStem]	K4 kissing-loop RNA reporter	apparent KD of K4 kissing-loop reporter	120
AAGGACGGGACUUCCUCGCCGGAUAGAGAUACCAGCCCAGCAAUGGGCCCUUGGCAGCUCACUGACCUCAGUGAUGUUGAGGUUC [Arange]	K4 kissing-loop RNA reporter	apparent KD of K4 kissing-loop reporter	289
